molecular target: wild-type human ALK (cytoplasmic domain, amino acids 1058-1620, N-terminal GST fusion) (Homo sapiens); construct: The cytoplasmic domain (amino acids 1058-1620) of wild-type human ALK; GST (N); made in house; host or cells: SF9 insect cells; experiment: ALK Inhibition in Enzyme Assay (Lance TR-FRET kinase assay); type: biochemical
pIC50: −log10 of the molar value.
Measured pIC50 of individual entries

Solved entries:
| COMPOUND | RECORDED_RESULT |
| --- | --- |
| COc1cccc(C(=O)/N=c2\[nH]c3cnc(OCCN4CCCCC4)cc3n2[C@H]2CC[C@@H](C(=O)NC(C)C)CC2)c1 [Example 116] | 7.00 to 7.30 |
| CC(C)(O)C1CCN(CCOc2cc3c(cn2)[nH]/c(=N\C(=O)c2cccc(F)c2)n3[C@H]2CC[C@@H](C(=O)N3CC(O)C3)CC2)CC1 [Example 81] | 6.00 to 7.00 |
| CC(C)NC(=O)[C@H]1CC[C@@H](n2/c(=N/C(=O)c3ccc(C(N)=O)cc3)[nH]c3cnc(OCCN4CCCCC4)cc32)CC1 [Example 122] | 6.00 to 7.00 |
| CC(C)NC(=O)[C@H]1CC[C@@H](n2/c(=N/C(=O)c3cccc(C(F)(F)F)c3)[nH]c3cnc(OCCN4CCCCC4)cc32)CC1 [Example 92] | > 7.30 |
| NC(=O)[C@H]1CC[C@@H](n2/c(=N/C(=O)c3ccc(F)cc3)[nH]c3ccc(CN4CCOCC4)cc32)CC1 [Example 205] | > 7.30 |

Could you now look at the following compound, please?
*Q* Provide one value: measured pIC50 of CC(C)NC(=O)[C@H]1CC[C@@H](n2/c(=N/C(=O)c3ccccn3)[nH]c3cnc(OCCN4CCCCC4)cc32)CC1 [Example 110]
*A* 5.30 to 6.00

* * *

Measured IC50 of individual entries
molecular target: wild-type human ALK (cytoplasmic domain, amino acids 1058-1620, N-terminal GST fusion) (Homo sapiens); construct: The cytoplasmic domain (amino acids 1058-1620) of wild-type human ALK; GST (N); made in house; host or cells: SF9 insect cells; test: ALK Inhibition in Enzyme Assay (Lance TR-FRET kinase assay); type: biochemical

Solved entries:
| COMPOUND | IC50 |
| --- | --- |
| CC(C)NC(=O)[C@]1(O)CC[C@H](n2/c(=N/C(=O)c3ccc(F)cc3)[nH]c3cnc(OCCN4CCCCC4)cc32)CC1 | 50 to 100 nM |
| CC(C)NC(=O)[C@H]1CC[C@@H](n2/c(=N/C(=O)c3ccc(F)cc3)[nH]c3ccc(Cn4cccn4)cc32)CC1 | < 50 nM |
| CC(C)(O)C1CCN(CCOc2cc3c(cn2)[nH]/c(=N\C(=O)c2cccc(F)c2)n3[C@H]2CC[C@@H](C(=O)N3C[C@@H]4C[C@H]3CN4)CC2)CC1 (relative stereo) | 100 to 1000 nM |

Could you now look at the following compound, please?
*Q* Provide one value: measured IC50 of COCCCNS(=O)(=O)c1cc(C(=O)Nc2nc3ccc(CO)cc3n2[C@H]2CC[C@@H](C(=O)OC)CC2)ccc1F
*A* 100 to 1000 nM

* * *

target: wild-type human ALK (cytoplasmic domain, amino acids 1058-1620, N-terminal GST fusion) (Homo sapiens, UniProt Q9UM73); construct: The cytoplasmic domain (amino acids 1058-1620) of wild-type human ALK; GST (N); made in house; host or cells: SF9 insect cells; assay: ALK Inhibition in Enzyme Assay (Lance TR-FRET kinase assay); format: biochemical
Sequence (Q9UM73 1058-1620): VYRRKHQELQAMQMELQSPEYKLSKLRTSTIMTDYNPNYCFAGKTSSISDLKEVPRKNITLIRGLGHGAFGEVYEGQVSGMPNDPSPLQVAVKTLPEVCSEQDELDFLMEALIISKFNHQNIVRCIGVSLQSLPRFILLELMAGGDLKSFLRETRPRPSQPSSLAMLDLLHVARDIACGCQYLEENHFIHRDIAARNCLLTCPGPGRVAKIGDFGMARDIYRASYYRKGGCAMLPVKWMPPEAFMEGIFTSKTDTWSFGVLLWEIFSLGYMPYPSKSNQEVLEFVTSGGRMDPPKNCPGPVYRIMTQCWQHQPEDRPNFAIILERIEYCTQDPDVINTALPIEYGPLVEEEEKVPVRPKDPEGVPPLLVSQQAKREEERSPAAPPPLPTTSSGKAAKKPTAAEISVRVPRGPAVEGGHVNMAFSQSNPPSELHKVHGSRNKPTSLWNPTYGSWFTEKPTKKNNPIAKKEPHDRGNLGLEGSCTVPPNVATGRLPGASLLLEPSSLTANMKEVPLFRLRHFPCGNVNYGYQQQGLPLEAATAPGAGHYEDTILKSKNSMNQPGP
pIC50: −log10 of the molar value.
TEST_READOUT: pIC50

Solved entries:
| MOLECULE | RECORDED_RESULT |
| --- | --- |
| CC(C)NC(=O)[C@H]1CC[C@@H](n2/c(=N/C(=O)c3ccc(F)cc3)[nH]c3ccc(-n4cncn4)cc32)CC1 | > 7.30 |
| CC(C)NC(=O)[C@H]1CC[C@@H](n2/c(=N/C(=O)c3ccnnc3)[nH]c3cnc(OCCN4CCCCC4)cc32)CC1 | 7.00 to 7.30 |
| O=C(/N=c1\[nH]c2ccc(CN3CCOCC3)cc2n1[C@H]1CC[C@@H](C(=O)N2CCOCC2)CC1)c1ccc(F)cc1 | 6.00 to 7.00 |
| CC(C)CCNC(=O)[C@H]1CC[C@@H](n2/c(=N/C(=O)c3ccc(F)cc3)[nH]c3ccc(CN4CCCCC4)cc32)CC1 | 7.00 to 7.30 |
| CC(C)NC(=O)[C@H]1CC[C@@H](n2/c(=N/C(=O)c3ccc(F)cc3)[nH]c3ccc(CN4CCOCC4)cc32)CC1 | > 7.30 |
| C=CCNS(=O)(=O)c1cccc(C(=O)/N=c2\[nH]c3cnc(OCCN4CCCCC4)cc3n2[C@H]2CC[C@@H](C(=O)NC(C)C)CC2)c1 | 6.00 to 7.00 |

Could you now look at the following compound, please?
*Q* Provide one value: measured pIC50 of CC(C)NC(=O)[C@H]1CC[C@@H](n2/c(=N/C(=O)c3ccc(F)cc3)[nH]c3ccc(CN4CCC(C)(O)CC4)cc32)CC1
*A* > 7.30
